- METHOD_NOTES: Metabolic stability using dog liver microsomes
- Type: in vitro ADME
- CONDITION_SUMMARY: dog, dog liver microsomes, pH 7.4; DLM control (without NADPH)
VALUE_KIND: half-life at 0.5 µM

Please give the measured half-life at 0.5 µM for this compound: COc1cc(C(C)=O)ccc1O [Apocynin, 4-hydroxy-3-methoxyacetophenone]
> 30 min

====

- METHOD_NOTES: Metabolic stability using human liver microsomes
- Assay type: in vitro ADME
- CONDITION_SUMMARY: human, human liver microsomes; HLM control (without NADPH)
VALUE_KIND: half-life

Please give the measured half-life for this compound: COc1cc(C(C)=O)ccc1O [Apocynin, 4-hydroxy-3-methoxyacetophenone]
> 30 min

====

- METHOD_NOTES: Metabolic stability using human liver microsomes
- Type: in vitro ADME
- CONDITION_SUMMARY: human, microsomes; matrix HLM (positive control)
VALUE_KIND: half-life (min)
Give bare numbers, in min.

Please give the measured half-life for this compound: O=C(O)Cc1ccccc1Nc1c(Cl)cccc1Cl [diclofenac]
9

====

Answer each item with its documented half-life.
- METHOD_NOTES: Stability in sodium phosphate buffer (HPLC)
- Format: physicochemical
- CONDITION_SUMMARY: buffer without microsomes and without NADPH; matrix buffer (no microsomes, no NADPH); DLM/HLM study
- Procedure: The stability of the compound of Formula (Ia) in a sodium phosphate buffer (50 mM, pH 7.4) was evaluated using HPLC. […] Area counts of apocynin and lipoid acid were found in 0 minute samples and were generally constant until the last time point measured (see: FIGS. 11-12 and Tables 5-6).

MOLECULE	half-life
COc1cc(C(C)=O)ccc1OC(=O)CCCCC1CCSS1 (centres unmarked) [compound of Formula (Ia)]	23 min

Please give the measured half-life for this molecule: COc1cc(C(C)=O)ccc1O [Apocynin, 4-hydroxy-3-methoxyacetophenone]
> 30 min

====

- METHOD_NOTES: Metabolic stability using rat liver microsomes
- Assay type: in vitro ADME
- CONDITION_SUMMARY: rat, rat liver microsomes, pH 7.4; RLM, control (without NADPH)
VALUE_KIND: half-life at 0.5 µM

Please give the measured half-life at 0.5 µM for this compound: COc1cc(C(C)=O)ccc1O [Apocynin, 4-hydroxy-3-methoxyacetophenone]
> 30 min
